- System: HCC1954
- methodNotes: area over the GR curve, 72 h; higher = more effect;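 further: Dye Drop or Deep Dye Drop imaging of viable cells in 384-well plates (Hoechst nuclei, LIVE/DEAD dye), nine half-log doses, GR normalized to DMSO controls and time-zero plates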

[
  {
    "compound": "CN(C)C/C=C/C(=O)Nc1ccc(C(=O)Nc2cccc(Nc3cc(-c4c[nH]c5ccccc45)ncn3)c2)cc1 [THZ-P1-2] (max 10 µM)",
    "area over the GR curve, GR": 0.114
  },
  {
    "compound": "CN(C)CC[C@H](CSc1ccccc1)Nc1ccc(S(=O)(=O)NC(=O)c2ccc(N3CCN(Cc4ccccc4-c4ccc(Cl)cc4)CC3)cc2)cc1[N+](=O)[O-] [ABT-737] (max 10 µM)",
    "area over the GR curve, GR": 0.027
  },
  {
    "compound": "CC(C)n1nc(-c2ccc3oc(N)nc3c2)c2c(N)ncnc21 [INK128/MLN0128] (max 3.162 µM)",
    "area over the GR curve, GR": 0.565
  },
  {
    "compound": "COc1cccc2c1C(=O)c1c(O)c3c(c(O)c1C2=O)C[C@@](O)(C(=O)CO)C[C@@H]3O[C@H]1C[C@H](N)[C@H](O)[C@H](C)O1 [Doxorubicin] (max 3.162 µM)",
    "area over the GR curve, GR": 0.73
  },
  {
    "compound": "Cc1cc(Nc2ncc(Cl)c(Nc3ccccc3S(=O)(=O)C(C)C)n2)c(OC(C)C)cc1C1CCNCC1 [Ceritinib/LDK378] (max 10 µM)",
    "area over the GR curve, GR": 0.124
  },
  {
    "compound": "COc1ccc2c(c1)[C@]1(C[C@H]1c1ccc3c(/C=C/c4ccc(CN5C[C@@H](C)O[C@@H](C)C5)cc4)n[nH]c3c1)C(=O)N2",
    "area over the GR curve, GR": 0.995
  },
  {
    "compound": "C[C@@H]1COCCN1c1cc(C2([S@](C)(=N)=O)CC2)nc(-c2cc[nH]c3nccc2-3)n1 [AZD6738] (max 10 µM)",
    "area over the GR curve, GR": -0.0136
  },
  {
    "compound": "CC1(N)CCN(c2cnc(-c3cccc(Cl)c3Cl)c(N)n2)CC1 [SHP099] (max 10 µM)",
    "area over the GR curve, GR": 0.0791
  },
  {
    "compound": "CN1CC[C@H](c2c(O)cc(O)c3c(=O)cc(-c4ccccc4Cl)oc23)[C@H](O)C1 [Flavopiridol] (max 1 µM)",
    "area over the GR curve, GR": 0.313
  },
  {
    "compound": "Cc1nc(-c2cn3c(n2)-c2ccc(-c4cnn(C(C)(C)C(N)=O)c4)cc2OCC3)n(C(C)C)n1 [Taselisib/GDC0032] (max 10 µM)",
    "area over the GR curve, GR": 0.949
  },
  {
    "compound": "CNCc1ccc(-c2[nH]c3cc(F)cc4c3c2CCNC4=O)cc1 [Rucaparib] (max 10 µM)",
    "area over the GR curve, GR": 0.059
  },
  {
    "compound": "CNc1nc(-c2ccc3c(N)n[nH]c3c2)cc(N2C[C@@H](C(=O)NC3CCCCC3)CC[C@H]2C)n1 (max 10 µM)",
    "area over the GR curve, GR": 0.0806
  },
  {
    "compound": "CN(C)C(=O)c1cc2cnc(Nc3ccc(N4CCNCC4)cn3)nc2n1C1CCCC1 [LEE011/Ribociclib] (max 10 µM)",
    "area over the GR curve, GR": 0.309
  },
  {
    "compound": "Cc1nc(NC(=O)N2CCC[C@H]2C(N)=O)sc1-c1ccnc(C(C)(C)C(F)(F)F)c1 [Alpelisib/BYL719] (max 10 µM)",
    "area over the GR curve, GR": 0.264
  },
  {
    "compound": "CCC(=O)Nc1ccc(C(=O)Nc2ccc(Nc3ncc4c(n3)N(C)c3ccc(C)cc3C(=O)N4C)cc2)cc1",
    "area over the GR curve, GR": 1.15
  },
  {
    "compound": "O=C(c1cc(Cc2n[nH]c(=O)c3ccccc23)ccc1F)N1CCN(C(=O)C2CC2)CC1 [Olaparib/AZD2281] (max 10 µM)",
    "area over the GR curve, GR": 0.0536
  }
]

Recorded values, source the supplement of paper PMC9663587.
